- Test system: Streptococcus faecalis 99 F 74
- Measurement Description: MIC, dilution in liquid medium
- Assay type: cell-based
- Test Settings: Enterococcus faecalis, 99F74, 48 h, 48 H
// reported MIC per item
# value in µg/mL; strip the unit string

Compound: CO/N=C(\C(=O)N[C@@H]1C(=O)N2C(C(=O)O)=C(COC(C)=O)CS[C@H]12)c1csc(N)n1 [Example 4]
Unit Abbrev: µg/mL
MIC: 3

Compound: CC(=O)OCC1=C(C(=O)O)N2C(=O)C(NC(=O)/C(=N\O)c3csc(N)n3)C2SC1 (stereo not shown) [Example 28]
Unit Abbrev: µg/mL
MIC: 40

Field: next compound
Entry CCO/N=C(\C(=O)N[C@@H]1C(=O)N2C(C(=O)O)=C(COC(C)=O)CS[C@H]12)c1csc(N)n1 [Example 11] has what MIC?
20

----------
- Test system: Salmonella typhimurium 420
- Measurement Description: MIC, dilution in liquid medium
- Type: cell-based
- Test Settings: Salmonella enterica, TYPHIMURIUM, 24 h; read-out: M.I.C.
// reported MIC per item
# value in µg/mL; strip the unit string

Entry CCO/N=C(/C(=O)NC1C(=O)N2C(C(=O)O)=C(COC(C)=O)CSC12)c1csc(N)n1 (stereo not shown) [Example 15] has what MIC?
100

Entry CO/N=C(\C(=O)N[C@@H]1C(=O)N2C(C(=O)O)=C(COC(C)=O)CS[C@H]12)c1csc(N)n1 [Example 4] has what MIC?
0.2

Entry CC(=O)OCC1=C(C(=O)O)N2C(=O)C(NC(=O)/C(=N\O)c3csc(N)n3)C2SC1 (stereo not shown) [Example 28] has what MIC?
0.1

Entry C=CO/N=C(\C(=O)NC1C(=O)N2C(C(=O)O)=C(COC(C)=O)CSC12)c1csc(N)n1 (stereo not shown) [Product B] has what MIC?
0.5

----------
- Tested on: Salmonella typhimurium 420
- Measurement Description: MIC, dilution in liquid medium
- Format: cell-based
- Test Settings: Salmonella enterica, TYPHIMURIUM, 24 h
Reported Endpoint: MIC (µg/mL)
# value in µg/mL; strip the unit string

Solved entries:
Compound: CC(=O)OCC1=C(C(=O)O)N2C(=O)[C@@H](NC(=O)/C(=N/O)c3csc(N)n3)[C@H]2SC1
Number: 2

Compound: C=CCO/N=C(\C(=O)N[C@@H]1C(=O)N2C(C(=O)O)=C(COC(C)=O)CS[C@H]12)c1csc(N)n1
Number: 1

Compound: CO/N=C(/C(=O)NC1C(=O)N2C(C(=O)O)=C(COC(C)=O)CSC12)c1csc(N)n1 (stereo not shown)
Number: 20

Entry CCO/N=C(\C(=O)N[C@@H]1C(=O)N2C(C(=O)O)=C(COC(C)=O)CS[C@H]12)c1csc(N)n1 has what MIC?
1

----------
- System: Streptococcus pyogenes A 561
- Measurement Description: MIC, dilution in liquid medium
- Assay type: cell-based
- Test Settings: Streptococcus pyogenes, A561, 24 h, 24 H; read-out: M.I.C.
- Procedure: The method used was a dilution of a liquid medium where a series of tubes received the same quantity of a sterile nutritive media and increasing doses of the test compounds were placed therein. Then each tube was seeded with a bacterial strain and was incubated for 24 to 48 hours at 37° C. in an oven. The increasing inhibition was determined by transillumination to determine the minimum inhibiting concentration (MIC in […]) and the results are reported in the following Tables.
Reported Endpoint: MIC (µg/mL)
# value in µg/mL; strip the unit string

Molecule: CCO/N=C(/C(=O)NC1C(=O)N2C(C(=O)O)=C(COC(C)=O)CSC12)c1csc(N)n1 (stereo not shown)
Number: 0.4
//
Molecule: CC(=O)OCC1=C(C(=O)O)N2C(=O)C(NC(=O)/C(=N\O)c3csc(N)n3)C2SC1 (stereo not shown)
Number: 0.02

Field: next molecule
Entry CO/N=C(\C(=O)N[C@@H]1C(=O)N2C(C(=O)O)=C(COC(C)=O)CS[C@H]12)c1csc(N)n1 has what MIC?
0.02

----------
- Test system: Escherichia Coli Sensible Tetracycline ATCC 9 637 = 1020
- Measurement Description: MIC, dilution in liquid medium
- Type: cell-based
- Test Settings: Escherichia coli, ATCC9, 24 h, 24 H
// reported MIC per item
# value in mg/L; strip the unit string

Solved entries:
Compound: CCO/N=C(\C(=O)N[C@@H]1C(=O)N2C(C(=O)O)=C(COC(C)=O)CS[C@H]12)c1csc(N)n1
Assay System: Escherichia Coli Sensible Tetracycline ATCC 9 637 = 1020
MIC / mg/L: 1

Compound: CC(=O)OCC1=C(C(=O)O)N2C(=O)C(NC(=O)/C(=N\O)c3csc(N)n3)C2SC1 (stereo not shown)
Assay System: Escherichia Coli Sensible Tetracycline ATCC 9 637 = 1020
MIC / mg/L: 0.05

Compound: C=CCO/N=C(\C(=O)N[C@@H]1C(=O)N2C(C(=O)O)=C(COC(C)=O)CS[C@H]12)c1csc(N)n1
Assay System: Escherichia Coli Sensible Tetracycline ATCC 9 637 = 1020
MIC / mg/L: 1

Field: next compound
Entry CO/N=C(/C(=O)NC1C(=O)N2C(C(=O)O)=C(COC(C)=O)CSC12)c1csc(N)n1 (stereo not shown) has what MIC?
20
